Kd for assorted binders
target: Hfq Core (Escherichia coli, UniProt P0A6X3 2-69); assay: fluorescence polarization
State just the number; it will be interpreted in nM.

RacA DNA 14 bp (dsDNA) DNA 1: TGACGCCGGCGTCA DNA 2: TGACGCCGGCGTCA ... 16.2
3-base A-tract DNA (dsDNA) DNA 1: CGGCAAACGAAACGGCAAACGAAACGGCAAACGAAA DNA 2: TTTCGTTTGCCGTTTCGTTTGCCGTTTCGTTTGCCG ... 19.4

Kindly review the next binder as well.
stdin: Quick check: Kd of xtal DNA, 30 bp with three 6-bp A-tracts (dsDNA) DNA 1: CGGCAAAAAACGGCAAAAAACGGCAAAAAA DNA 2: TTTTTTGCCGTTTTTTGCCGTTTTTTGCCG ?
stdout: 4.9
